What pKi was measured for each of the following?
Target: D(4) dopamine receptor (Homo sapiens, UniProt P21917)
Sequence (P21917 whole entry): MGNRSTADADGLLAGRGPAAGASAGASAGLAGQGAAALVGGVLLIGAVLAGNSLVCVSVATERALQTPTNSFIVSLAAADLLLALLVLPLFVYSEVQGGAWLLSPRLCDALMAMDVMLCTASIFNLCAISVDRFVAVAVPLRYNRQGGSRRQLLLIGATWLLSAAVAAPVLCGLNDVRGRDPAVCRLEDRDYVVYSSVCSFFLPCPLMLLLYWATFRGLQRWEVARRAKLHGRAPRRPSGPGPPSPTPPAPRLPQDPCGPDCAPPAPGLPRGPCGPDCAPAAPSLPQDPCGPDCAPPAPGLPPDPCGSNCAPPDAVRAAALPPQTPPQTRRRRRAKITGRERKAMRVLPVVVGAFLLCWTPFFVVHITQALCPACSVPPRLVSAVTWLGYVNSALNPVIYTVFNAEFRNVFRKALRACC
Assay: Displacement of [3H]A-369508 from human recombinant D4.4 receptor expressed in HEK293 cell membrane
The meaning of pKi here: minus log10 of the concentration in molar units.

Reported pKi for CO/N=C(\CCN1CCN(c2ccccn2)CC1)c1ccc(Cl)cc1 : what is it?
7.42

Quick check: pKi of CO/N=C(\CCN1CCN(c2ccccn2)CC1)c1ccccc1 ?
7.64

Which pKi reading was recorded for the compound CO/N=C(/CCN1CCN(c2ccccn2)CC1)c1cccc(C)c1 ?
7.49

GET /values?readout=pKi&item= CO/N=C(\CCN1CCN(c2ccccn2)CC1)c1cccc(C)c1
8.10

Request the reported pKi associated with CO/N=C(\CCN1CCN(c2ccccn2)CC1)c1ccc(C)c(C)c1
7.56

Using the record for O/N=C(\CCN1CCN(c2ccccn2)CC1)c1ccccc1 , report its pKi.
7.60

The measurements presented in this section are drawn from ChEMBL document CHEMBL1145336.
